inhibition overview
Biological target: Receptor tyrosine-protein kinase erbB-4 (Homo sapiens) (UniProt Q15303);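 also: values are averaged percent inhibition of ERBB4 kinase activity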
Sequence (Q15303 whole entry): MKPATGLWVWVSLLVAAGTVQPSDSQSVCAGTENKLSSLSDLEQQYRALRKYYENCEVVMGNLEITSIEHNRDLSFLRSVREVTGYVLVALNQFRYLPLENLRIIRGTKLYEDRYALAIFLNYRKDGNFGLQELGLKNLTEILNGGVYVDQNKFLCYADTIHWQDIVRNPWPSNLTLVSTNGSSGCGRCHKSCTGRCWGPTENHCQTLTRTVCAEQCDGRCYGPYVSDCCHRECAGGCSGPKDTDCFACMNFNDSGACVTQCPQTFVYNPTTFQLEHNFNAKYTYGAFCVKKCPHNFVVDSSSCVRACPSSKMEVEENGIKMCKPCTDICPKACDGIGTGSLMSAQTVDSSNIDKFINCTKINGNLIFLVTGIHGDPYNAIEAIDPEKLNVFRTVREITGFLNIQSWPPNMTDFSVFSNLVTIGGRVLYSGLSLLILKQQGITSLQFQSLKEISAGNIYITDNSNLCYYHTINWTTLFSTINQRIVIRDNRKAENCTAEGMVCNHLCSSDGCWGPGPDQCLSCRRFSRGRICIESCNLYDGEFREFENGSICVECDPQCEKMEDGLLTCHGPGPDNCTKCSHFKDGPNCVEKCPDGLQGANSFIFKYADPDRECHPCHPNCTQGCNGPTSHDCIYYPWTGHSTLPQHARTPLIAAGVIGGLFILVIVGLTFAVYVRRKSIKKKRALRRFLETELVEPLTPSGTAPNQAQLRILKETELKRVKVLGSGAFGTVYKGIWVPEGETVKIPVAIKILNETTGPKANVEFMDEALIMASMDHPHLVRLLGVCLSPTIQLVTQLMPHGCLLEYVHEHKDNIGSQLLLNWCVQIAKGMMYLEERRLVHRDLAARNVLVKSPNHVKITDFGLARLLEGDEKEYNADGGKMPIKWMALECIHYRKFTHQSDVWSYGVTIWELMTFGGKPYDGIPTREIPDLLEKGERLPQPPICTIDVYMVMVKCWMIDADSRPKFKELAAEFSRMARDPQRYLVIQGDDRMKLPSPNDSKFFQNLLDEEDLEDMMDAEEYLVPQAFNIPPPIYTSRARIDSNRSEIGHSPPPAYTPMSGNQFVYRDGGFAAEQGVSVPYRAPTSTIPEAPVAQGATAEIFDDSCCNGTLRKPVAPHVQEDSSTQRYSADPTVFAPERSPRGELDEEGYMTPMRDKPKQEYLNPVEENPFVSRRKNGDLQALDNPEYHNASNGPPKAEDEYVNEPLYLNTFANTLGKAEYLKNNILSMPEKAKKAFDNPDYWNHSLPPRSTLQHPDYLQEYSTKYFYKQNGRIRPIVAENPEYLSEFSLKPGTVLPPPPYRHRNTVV
Conditions: at 0.1 µM
parameter.measured: inhibition (%)

entry.smiles	output.unit	number
COc1cc(/C=N/Nc2ncnc3c2cnn3C(C)C)ccc1O	%	3.96
CCn1c(-c2nonc2N)nc2c(C#CC(C)(C)O)nc(OCCNC)cc21	%	4.11
Cc1cc(-c2ccccn2)cc(C)c1/C=C/c1cncc(-c2nn[nH]n2)c1	%	8.8
O=S(=O)(CCOCc1ccc(-c2ccc3ncnc(Nc4ccc(OCc5cccc(F)c5)c(Cl)c4)c3c2)o1)c1ccccc1	%	27.5
CS(=O)(=O)Nc1cccc(-c2ccc3c(NC(=O)C4CC4)n[nH]c3c2)c1	%	6.04
N#Cc1cccc(Nc2nccc(-c3cnn4ncccc34)n2)c1	%	8.57
Cc1cc(Cl)cc2c1NC(=O)C2=NNc1ccc(S(N)(=O)=O)cc1	%	6.08
O=C(Nc1ccc(Oc2ccc3[nH]c(NC(=O)c4ccco4)nc3c2)cc1)Nc1cc(C(F)(F)F)ccc1F	%	-1.74
Cc1ccc2c(c1)/C(=N/Nc1ccc(S(N)(=O)=O)cc1)C(=O)N2	%	6.45
CN(C)c1cc2c(Nc3ccc4c(cnn4Cc4ccccc4)c3)ncnc2cn1	%	91.1
OCc1ccc(-c2nc(-c3ccccn3)c(-c3ccc4c(c3)OCO4)[nH]2)cc1	%	11.6
